Can you tell me abundance fitness for the items I'm about to list?
B1: Zinc finger homeobox protein 3, residues 2147 to 2202; numbered along this chain, Q15911 (parent)
chain: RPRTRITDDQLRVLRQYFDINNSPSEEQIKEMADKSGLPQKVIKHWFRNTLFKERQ

# Variants of: B1
# Protocol description: abundance fitness (aPCA) (normalised: wild type 0, dead -1); higher = more abundant; growth selection in yeast, the domain comes from the species named
# Condition label: Homo sapiens
One number for each entry.

// known answers, use as guide
>  <Macromolecule sequence>
RPRTRITDDQLRVLRQYFDINNSPSEEQIKEMATKSGLPQKVIKHWFRNTLFKERQ

>  <Test value>
0.053

$$$$
>  <Macromolecule sequence>
RPRTRITDDFLRVLRQYFDINNSPSEEQIKEMADKSGLPQKVIKHWFRNTLFKERQ

>  <Test value>
-0.626

$$$$
>  <Macromolecule sequence>
RPRTRITDDYLRVLRQYFDINNSPSEEQIKEMADKSGLPQKVIKHWFRNTLFKERQ

>  <Test value>
-0.626

$$$$
>  <Macromolecule sequence>
RPRTRITDDQLRVLRQYFDINNSPSEEQIKEMADKSGLPQKVIKQWFRNTLFKERQ

>  <Test value>
0.085

$$$$
>  <Macromolecule sequence>
RPRTRITDDQLRVLRQYFDINNSPSEEQIKEIADKSGLPQKVIKHWFRNTLFKERQ

>  <Test value>
-0.191

$$$$

Go through the list and state abundance fitness for each entry.
1. RPRTRITFDQLRVLRQYFDINNSPSEEQIKEMADKSGLPQKVIKHWFRNTLFKERQ
2. RPRTRITDDQLRVLRQYFDINNSPSEEQIKEMADKSGLPQKVIKHWFRNTNFKERQ
3. RPRTRITDDCLRVLRQYFDINNSPSEEQIKEMADKSGLPQKVIKHWFRNTLFKERQ
4. RPRTRITDDQLRVLRQYFDINNSPSEEQIKEMADKSGLPQKVIKHWFRNTLFRERQ
5. RPRTRITPDQLRVLRQYFDINNSPSEEQIKEMADKSGLPQKVIKHWFRNTLFKERQ
6. RPRTRITDDQLRVLRQYFDINNSPSEPQIKEMADKSGLPQKVIKHWFRNTLFKERQ

Reply text:
1. -0.204
2. -0.014
3. -0.381
4. -0.033
5. 0.149
6. -0.078

Hi team, please reply with abundance fitness for each item in this list.
1. RPRTRITDKQLRVLRQYFDINNSPSEEQIKEMADKSGLPQKVIKHWFRNTLFKERQ
2. RPRTRITDDQLCVLRQYFDINNSPSEEQIKEMADKSGLPQKVIKHWFRNTLFKERQ

Reply text:
[0.046, -0.067]

Batch: abundance fitness for all items listed.
1. RPRTRITDDQLRVLRQYFDINNSDSEEQIKEMADKSGLPQKVIKHWFRNTLFKERQ
2. RPRTRITDDQLRVLRQYFDINNSPSEEQIKEMADKSGLPQKVIKHWFRGTLFKERQ
3. RPRTRITDDQLRVLRQYFDINNSPSEEQIKEMAFKSGLPQKVIKHWFRNTLFKERQ
4. RPRTRITDDQLRVLRQYFDINNSPSEEQIKEMADKSELPQKVIKHWFRNTLFKERQ
5. RPRTRITDDQLRVLRQYFDINNSPSGEQIKEMADKSGLPQKVIKHWFRNTLFKERQ
6. RPRTRITDDQLRVLRQYFDINNSPSEWQIKEMADKSGLPQKVIKHWFRNTLFKERQ
7. RPRTRITDDQLRVLRRYFDINNSPSEEQIKEMADKSGLPQKVIKHWFRNTLFKERQ
8. RPRTRITDDQLRVLRQYFDINNSQSEEQIKEMADKSGLPQKVIKHWFRNTLFKERQ

Reply text:
1. -0.8
2. -0.124
3. 0.013
4. -0.155
5. -0.192
6. -0.341
7. 0.001
8. -0.747

// sample RPRTRITDDQLRVLRQYFDINNSPSEEQIKEMADKSGLPQKNIKHWFRNTLFKERQ , its abundance fitness was -0.15
